TEST TARGET: T1, human ACVR2A (human, UniProt P27037 20-135, limits assumed); further: test concentration or dose not given here
T1 construct: coated antigen of the initial ELISA; also called activin receptor, type II A
T1 sequence (P27037 20-135 limits assumed): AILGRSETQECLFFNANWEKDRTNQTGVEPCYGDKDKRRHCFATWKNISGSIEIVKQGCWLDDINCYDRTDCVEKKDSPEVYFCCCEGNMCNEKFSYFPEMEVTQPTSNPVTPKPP
ASSAY INFO: ELISA
// values below are reported optical density
Please state the figure in OD; there is no need to write the unit.

373_F12 (antibody, V domains shown, Group III) VH: EVQLLESGGGLVQPGGSLRLSCAASGFTFSSYSMNWVRQAPGKGLEWVSNINYNGGYTGYADSVKGRFTISRDNSKNTLYLQMNSLRAEDTAVYYCARGANWHDTALDYWGQGTLVTVSS VL: DIQMTQSPSSLSASVGDRVTITCRASQSISTYLNWYQQKPGKAPKLVIYAATSRASGVPSRFSGSGSGTDFTLTISSLQPEDFATYYCQQSYETPLTFGGGTKVEIK
3.25
371_E07 (antibody, V domains shown, Group III) VH: EVQLLESGGGLVQPGGSLRLSCAASGFTFDSYSMNWVRQAPGKGLEWVAGINYNGGYTSYADSVKGRFTISRDNSKNTLYLQMNSLRAEDTAVYYCARGANWHDTALDYWGQGTLVTVSS VL: DIQMTQSPSSLSASVGDRVTITCRASQSIISYLNWYQQKPGKAPKLLIYAATSLASGVPSRFSGSGSGTDFTLTISSLQPEDFATYYCQQSYESPLTFGGGTKVEIK
3.09

Proceeding to the next binder to report its optical density.
Memo: 368_A04 (antibody, V domains shown, Group III) VH: EVQLLESGGGLVQPGGSLRLSCAASGFTFDDYSMNWVRQAPGKGLEWVAGINYNGGYKSYADSVKGRFTISRDNSKNTLYLQMNSLRAEDTAVYYCARGANWHDTHLDYWGQGTLVTVSS VL: DIQMTQSPSSLSASVGDRVTITCRASQSILTYLNWYQQKPGKAPKLVIYAVTSRASGVPSRFSGSGSGTDFTLTISSLQPEDFATYYCQQSYELPLTFGGGTKVEIK , reported optical density: 2.35
